Assay: NCI Yeast Anticancer Drug Screen. Data for the sgs1 mgt1 strain (AID 161)
Settings: S. cerevisiae sgs1 mgt1 strain, at 5.0 µM (retest, dose inferred, filed as 0.5)
Compounds without any hit were thinned out: in the full panel of roughly 79,000, 15% have a hit. Active and inactive are the calls of the source. Cut-off read from the data, not from the text of the source: active = growth inhibition above about 70%; inactive = the rest.
Your reply should match one of these outcome classes. active, inactive

-- ask Identify the outcome logged in this assay for the compound shown: N#Cc1nc(Nc2ccc(Cl)cc2)sc1N
-- reply inactive

-- ask Identify the outcome logged in this assay for the compound shown: COc1ccccc1NC(=O)c1ccc(Cl)cc1
-- reply inactive

-- ask Identify the outcome logged in this assay for the compound shown: CCCCCCCC/C=C\CCCCCCCCN
-- reply inactive

-- ask Identify the outcome logged in this assay for the compound shown: S=C1N(c2ccc(Cl)cc2)C2=C(N=Nc3ccccc3)C(=Nc3ccccc3S2)N1c1ccccn1
-- reply inactive

-- ask Identify the outcome logged in this assay for the compound shown: CCCCCCCCCCCCOCCOCCOCC(N)=O
-- reply inactive

-- ask Identify the outcome logged in this assay for the compound shown: O=[N+]([O-])c1ccc(C(c2c[nH]c3ccccc23)c2c[nH]c3ccccc23)cc1
-- reply active

-- ask Identify the outcome logged in this assay for the compound shown: O=C1C=C(NCCc2cc(Br)c(O)c(Br)c2)C(=O)c2ncccc21
-- reply inactive

-- ask Identify the outcome logged in this assay for the compound shown: O=C1SS(=O)c2ccccc21 (configuration not stated)
-- reply inactive

-- ask Identify the outcome logged in this assay for the compound shown: C/C(=N\OCC(O)CNCCSCc1ccccc1)c1ccccc1Cl (configuration not stated)
-- reply inactive

-- ask Identify the outcome logged in this assay for the compound shown: O=C1C=CC(=Nc2cccc3c2-c2ccccc2C3=O)O1
-- reply inactive

-- ask Identify the outcome logged in this assay for the compound shown: COc1ccc(C(OCC2OC(n3cnc4c(=O)n(Cc5ccccc5[N+](=O)[O-])nnc43)C(O)C2O)(c2ccccc2)c2ccc(OC)cc2)cc1 (configuration not stated)
-- reply inactive

-- ask Identify the outcome logged in this assay for the compound shown: N#CSCC1COc2ccccc2O1 (configuration not stated)
-- reply inactive
